# Tested on: feline IL-31 15H05 mutant
# Sequence (as listed by the source, change not shown): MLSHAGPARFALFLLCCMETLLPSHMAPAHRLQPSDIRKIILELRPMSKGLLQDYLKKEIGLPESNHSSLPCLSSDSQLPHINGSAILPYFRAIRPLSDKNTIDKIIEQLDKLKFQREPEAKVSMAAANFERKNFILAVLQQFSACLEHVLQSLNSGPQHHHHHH
# Assay: Indirect ELISA, binding to feline IL-31 15H05 mutant
# Conditions used: compared with wildtype
Measured quantity: binding to feline IL-31 15H05 mutant (ELISA)

ZIL171: fully canine anti IL-31 antibody, VH SEQ ID NO: 107, VL SEQ ID NO: 109 (antibody, listed as Canis familiaris, V domains shown) VH: EVQLVESGGDLVKPAGSLRLSCVASGFTFRTYVMNWVRQAPGKGLQWVASINGGGSSPTYADAVRGRFTVSRDNAQNSLFLQMNSLRAEDTAIYFCVVSMVGPFDYWGHGTLVTVSS VL: SSVLTQPPSVSVSLGQTATISCSGKSLSYYYAQWFQQKAGQAPVLVIYKDTERPSGIPDRFSGSSSGNTHTLTISGARAEDEADYYCESAVSSDTIVFGGGTHLTVL :: binding was impacted
ZIL159: fully canine anti IL-31 antibody, VH SEQ ID NO: 103, VL SEQ ID NO: 105 (antibody, listed as Canis familiaris, V domains shown) VH: EVQLVESGGDLVKPAGSLRLSCVASGFTFSSYVMTWVRQAPGKGLQWVAGINSEGSRTAYADAVKGRFTISRDNAKNTLYLQIDSLRAEDTAIYYCATGDIVATGTSYWGQGTLVTVSS VL: SNVLTQPPSVSVSLGQTATISCSGETLNRFYTQWFQQKAGQAPVLVIYKDTERPSGIPDRFSGSSSGNIHTLTISGARAEDEAAYYCKSAVSIDVGVFGGGTHLTVF :: binding was impacted
ZIL69: fully canine anti IL-31 antibody, VH SEQ ID NO: 91, VL SEQ ID NO: 93 (antibody, listed as Canis familiaris, V domains shown) VH: EVQLVESGGDLVKPAGSLRLSCVASGFTFSSYAMKWVRQAPGKGLQWVATINNDGTRTGYADAVRGRFTISKDNAKNTLYLQMDSLRADDTAVYYCTKGNAESGCTGDHCPPYWGQGTLVTVSS VL: SSVLTQPPSVSVSLGQTATISCSGESLNKYYAQWFQQKAGQAPVLVIYKDTERPSGIPDRFSGSSAGNTHTLTISGARAEDEADYYCESAVSSETNVFGSGTQLTVL :: binding was impacted

Reference source for all entries: patent US11433139B2
